All values here come from patent US20100256357A1.

Target: human CA-II (Homo sapiens, UniProt P00918)
Construct: purchased Sigma-Aldrich C6165
Method: Carbonic Anhydrase-II (CA-II) Fluorescence Polarization Tight Binding Assay-Kd Determination
Run Parameters: read-out: CA-II Kd
Please provide measured pKd for the entries that follow.
Answers are plain numbers, as −log10 of the molar value.

Examples with their reported pKd follow.
CN(CC1CC1)C(=O)c1nc(Cc2ccccc2)n(-c2ccc(S(N)(=O)=O)cc2)n1 [Example R-20] : 9.09
NS(=O)(=O)c1ccc(-n2nc(C(=O)NCC3CCCCC3)nc2Cc2ccccc2)cc1 [Example R-17] : 10.17
Cc1ccc(C)c(Cn2cc(C(F)(F)F)nc2-c2ccc(S(N)(=O)=O)cc2)c1 [JJJ-1] : 9.22
Cc1cc(Cn2cc(C(F)(F)F)nc2-c2ccc(S(N)(=O)=O)cc2)ccc1F [JJJ-2] : 9.26
NS(=O)(=O)c1ccc(-c2nc(C(F)(F)F)cn2Cc2cccc(OC(F)F)c2)cc1 [JJJ-4] : 8.86
COc1cccc(CNC(=O)c2nc(Cc3ccccc3)n(-c3ccc(S(N)(=O)=O)cc3)n2)c1 [Example R-22] : 10.04
CC1(C)COCN1C(=O)c1nc(Cc2ccccc2)n(-c2ccc(S(N)(=O)=O)cc2)n1 [Example R-6] : 9.49
NS(=O)(=O)c1ccc(-n2nc(C(=O)N(CCO)Cc3ccccc3)nc2Cc2ccccc2)cc1 [Example R-2] : 9.21

For the 5 compounds below, give their pKd values.
1. NS(=O)(=O)c1ccc(-n2nc(C(=O)NCc3n[nH]c4c3CCC4)nc2Cc2ccccc2)cc1 [Example R-11]
2. Cc1ccccc1Cn1cc(C(F)(F)F)nc1-c1ccc(S(N)(=O)=O)cc1 [JJJ-3]
3. CCCCN(C)C(=O)c1nc(Cc2ccccc2)n(-c2ccc(S(N)(=O)=O)cc2)n1 [Example R-3]
4. CCCCCN(C)C(=O)c1nc(Cc2ccccc2)n(-c2ccc(S(N)(=O)=O)cc2)n1 [Example R-1]
5. CN(C)[C@H]1CCN(C(=O)c2nc(Cc3ccccc3)n(-c3ccc(S(N)(=O)=O)cc3)n2)C1 [Example R-23]

A:
10.04
9.43
9.35
9.25
9.53

For the 2 compounds below, give their pKd values.
1. N#CCCN(C(=O)c1nc(Cc2ccccc2)n(-c2ccc(S(N)(=O)=O)cc2)n1)C1CC1 [Example R-13]
2. COC[C@H](C)NC(=O)c1nc(Cc2ccccc2)n(-c2ccc(S(N)(=O)=O)cc2)n1 [Example R-21]

A:
9.19
10.05

----------
Target: human CA-II (Homo sapiens)
Construct: purchased Sigma-Aldrich C6165
Method: Carbonic Anhydrase-II (CA-II) Fluorescence Polarization Tight Binding Assay-Kd Determination
Run Parameters: read-out: Kd_CAII
Please provide measured Kd for the entries that follow.
Answers are plain numbers, in nM.

Examples with their reported Kd follow.
CN(C)[C@H]1CCN(C(=O)c2nc(Cc3ccccc3)n(-c3ccc(S(N)(=O)=O)cc3F)n2)C1 [Example A-1m] : 0.2
CN(CCN1CCOCC1)C(=O)c1nc(Cc2ccccc2)n(-c2ccc(S(N)(=O)=O)cc2F)n1 [Example A-1k] : 0.22

Value of measured Kd for the entry CC(C)OC(=O)c1nc(Cc2ccccc2)n(-c2ccc(S(N)(=O)=O)cc2)n1 [Example P-1] : 0.15

----------
Target: human CA-II (Homo sapiens)
Construct: purchased Sigma-Aldrich C6165
Method: Carbonic Anhydrase-II (CA-II) Fluorimetric Assay-IC50 Determination
Assay type: biochemical
Run Parameters: at 100 nM (c7); read-out: CA-II % inhibition at concentration of column 7
Please provide measured inhibition at 0.1 µM for the entries that follow.
Numbers only, in %.

Examples with their reported inhibition at 0.1 µM follow.
CCCN(C(=O)c1nc(Cc2ccccc2)n(-c2ccc(S(N)(=O)=O)cc2)n1)[C@@H](C)CO : 98
CCc1ccc(CN(C)C(=O)c2nc(Cc3ccccc3)n(-c3ccc(S(N)(=O)=O)cc3)n2)cc1 : 99
CCN(CC)CCN(CC)C(=O)c1nc(Cc2ccccc2)n(-c2ccc(S(N)(=O)=O)cc2)n1 : 97
CC(C)CN(CC(C)C)C(=O)c1nc(Cc2ccccc2)n(-c2ccc(S(N)(=O)=O)cc2)n1 : 98
NS(=O)(=O)c1ccc(-n2nc(C(=O)N3CCOCC3)nc2Cc2ccccc2)cc1 : 98
CN(C(=O)c1nc(Cc2ccccc2)n(-c2ccc(S(N)(=O)=O)cc2)n1)C(C1CC1)C1CC1 : 99

Note: attention shifts to another entry.
Value of measured inhibition at 0.1 µM for the entry `Cc1ccc(CN(C)C(=O)c2nc(Cc3ccccc3)n(-c3ccc(S(N)(=O)=O)cc3)n2)cc1` : 100

----------
Please provide measured inhibition at 0.0025 µM for the entries that follow.
Target: human CA-II (Homo sapiens, UniProt P00918)
Construct: purchased Sigma-Aldrich C6165
Method: Carbonic Anhydrase-II (CA-II) Fluorimetric Assay-IC50 Determination
Type: biochemical
Run Parameters: Min dose 2.5 nM; read-out: CAII % Inh @ Min dose
Experimental: Carbonic Anhydrase-II (CA-II) Fluorimetric Assay-IC50 Determination Compounds were diluted in DMSO at the concentration of 1 mM, then 50 μM and transferred to a 96-well plate for further dilutions (1:3 dilution, 11 points) in duplicate. […] Enzyme inhibition was determined by pipetting 8 μL of human CA-II (5 nM, from Sigma-Aldrich, product #: C6165) into assay plate contained 2 μL of compound and 2 μL of substrate (10 μM) in 88 μL of assay buffer. […]
Numbers only, in %.

For the 4 compounds below, give their inhibition at 0.0025 µM values.
1. NS(=O)(=O)c1ccc(-c2nc(C(F)(F)F)cn2Cc2cccc(OC(F)F)c2)cc1
2. Cc1ccccc1Cn1cc(C(F)(F)F)nc1-c1ccc(S(N)(=O)=O)cc1
3. Cc1ccc(C)c(Cn2cc(C(F)(F)F)nc2-c2ccc(S(N)(=O)=O)cc2)c1
4. Cc1cc(Cn2cc(C(F)(F)F)nc2-c2ccc(S(N)(=O)=O)cc2)ccc1F

A:
39
47
46
37

----------
Target: human CA-II (Homo sapiens)
Construct: purchased Sigma-Aldrich C6165
Method: Carbonic Anhydrase-II (CA-II) Fluorescence Polarization Tight Binding Assay-Kd Determination
Run Parameters: inhibitor concentration 2.5 nM
Endpoint Name: inhibition at 0.0025 µM
Write the quantity with the unit trailing the number.

Cc1cc(CNCc2nc(Cc3ccccc3)n(-c3ccc(S(N)(=O)=O)cc3F)n2)ccc1F [Example T-49] : 49%
NS(=O)(=O)c1ccc(-n2nc(CNC3Cc4ccccc4C3)nc2Cc2ccccc2)c(F)c1 [Example T-76] : 41%

For the 2 molecules below, give their inhibition at 0.0025 µM values.
1. Cc1cccc(CCNCc2nc(Cc3ccccc3)n(-c3ccc(S(N)(=O)=O)cc3F)n2)c1 [Example T-66]
2. Cc1ccn(CCNCc2nc(Cc3ccccc3)n(-c3ccc(S(N)(=O)=O)cc3F)n2)n1 [Example T-68]

A:
["52%", "55%"]

----------
Target: human CA-II (Homo sapiens)
Construct: purchased Sigma-Aldrich C6165
Method: Carbonic Anhydrase-II (CA-II) Fluorimetric Assay-IC50 Determination
Type: biochemical
Run Parameters: at 10 nM (c7); read-out: CA-II % inhibition at concentration of column 7
Please provide measured inhibition at 0.01 µM for the entries that follow.

Examples with their reported inhibition at 0.01 µM follow.
NS(=O)(=O)c1ccc(-n2nc(C(=O)N3CCC(c4cccnc4)C3)nc2Cc2ccccc2)cc1 (centres unmarked) : 97%
Cc1nc(CN(C)C(=O)c2nc(Cc3ccccc3)n(-c3ccc(S(N)(=O)=O)cc3)n2)cs1 : 92%
NS(=O)(=O)c1ccc(-n2nc(C(=O)N3CCC(c4ccccn4)C3)nc2Cc2ccccc2)cc1 (centres unmarked) : 97%
CN(Cc1n[nH]c2c1CCCC2)C(=O)c1nc(Cc2ccccc2)n(-c2ccc(S(N)(=O)=O)cc2)n1 : 93%

Note: attention shifts to another entry.
# value of inhibition at 0.01 µM, human CA-II (Homo sapiens), item `Cc1cc(C)n(CCN(C)C(=O)c2nc(Cc3ccccc3)n(-c3ccc(S(N)(=O)=O)cc3)n2)n1` = 88%

----------
Target: human CA-IV (Homo sapiens, UniProt P22748)
Construct: made in house; host or cells: Escherichia coli BL21(DE3)
Sequence (P22748 19-284 limits assumed): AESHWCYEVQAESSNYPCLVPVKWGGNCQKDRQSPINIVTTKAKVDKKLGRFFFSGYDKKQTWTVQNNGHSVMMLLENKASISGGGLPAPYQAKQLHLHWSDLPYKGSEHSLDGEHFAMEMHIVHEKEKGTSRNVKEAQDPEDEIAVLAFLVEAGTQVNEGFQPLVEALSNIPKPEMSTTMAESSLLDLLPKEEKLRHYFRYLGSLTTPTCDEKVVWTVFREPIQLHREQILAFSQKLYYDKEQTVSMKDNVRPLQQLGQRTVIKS
Method: Carbonic Anhydrase-IV (CA-IV) Fluorescence Polarization Assay-IC50 Determination
Assay type: binding
Run Parameters: read-out: CA-IV IC50
Endpoint Name: IC50 (nM)
Answers are plain numbers, in nM.

NS(=O)(=O)c1ccc(-n2nc(C(=O)N3CC(Oc4ccccc4)C3)nc2Cc2ccccc2)cc1 : 220
NS(=O)(=O)c1ccc(-n2nc(C(=O)NCc3n[nH]c4c3CCC4)nc2Cc2ccccc2)cc1 : 202
N#CCCN(C(=O)c1nc(Cc2ccccc2)n(-c2ccc(S(N)(=O)=O)cc2)n1)C1CC1 : 208
CCCCCN(CCO)C(=O)c1nc(Cc2ccccc2)n(-c2ccc(S(N)(=O)=O)cc2)n1 : 220
CCCCN(CC)C(=O)c1nc(Cc2ccccc2)n(-c2ccc(S(N)(=O)=O)cc2)n1 : 215

For the 3 compounds below, give their IC50 values.
1. NS(=O)(=O)c1ccc(-n2nc(C(=O)N3CCc4ccccc4CC3)nc2Cc2ccccc2)cc1
2. NS(=O)(=O)c1ccc(-n2nc(C(=O)N3CCOc4ccccc4C3)nc2Cc2ccccc2)cc1
3. NS(=O)(=O)c1ccc(-n2nc(C(=O)N3CCCCC3)nc2Cc2ccccc2)cc1

A:
1. 115
2. 182
3. 360

For the 5 compounds below, give their IC50 values.
1. CCCN(CC1CC1)C(=O)c1nc(Cc2ccccc2)n(-c2ccc(S(N)(=O)=O)cc2)n1
2. NS(=O)(=O)c1ccc(-n2nc(C(=O)NCC3CCCCC3)nc2Cc2ccccc2)cc1
3. CC1(C)COCN1C(=O)c1nc(Cc2ccccc2)n(-c2ccc(S(N)(=O)=O)cc2)n1
4. CC(=O)N1CCCN(C(=O)c2nc(Cc3ccccc3)n(-c3ccc(S(N)(=O)=O)cc3)n2)CC1
5. CN(CC(O)c1ccccc1)C(=O)c1nc(Cc2ccccc2)n(-c2ccc(S(N)(=O)=O)cc2)n1 (stereo not shown)

A:
1. 167
2. 242
3. 180
4. 274
5. 198
